Target: human Kv4.3/KChIP2.2 potassium channel (Homo sapiens, UniProt Q9UK17)
Construct: expressed in transfected cells
Sequence (Q9UK17 whole entry): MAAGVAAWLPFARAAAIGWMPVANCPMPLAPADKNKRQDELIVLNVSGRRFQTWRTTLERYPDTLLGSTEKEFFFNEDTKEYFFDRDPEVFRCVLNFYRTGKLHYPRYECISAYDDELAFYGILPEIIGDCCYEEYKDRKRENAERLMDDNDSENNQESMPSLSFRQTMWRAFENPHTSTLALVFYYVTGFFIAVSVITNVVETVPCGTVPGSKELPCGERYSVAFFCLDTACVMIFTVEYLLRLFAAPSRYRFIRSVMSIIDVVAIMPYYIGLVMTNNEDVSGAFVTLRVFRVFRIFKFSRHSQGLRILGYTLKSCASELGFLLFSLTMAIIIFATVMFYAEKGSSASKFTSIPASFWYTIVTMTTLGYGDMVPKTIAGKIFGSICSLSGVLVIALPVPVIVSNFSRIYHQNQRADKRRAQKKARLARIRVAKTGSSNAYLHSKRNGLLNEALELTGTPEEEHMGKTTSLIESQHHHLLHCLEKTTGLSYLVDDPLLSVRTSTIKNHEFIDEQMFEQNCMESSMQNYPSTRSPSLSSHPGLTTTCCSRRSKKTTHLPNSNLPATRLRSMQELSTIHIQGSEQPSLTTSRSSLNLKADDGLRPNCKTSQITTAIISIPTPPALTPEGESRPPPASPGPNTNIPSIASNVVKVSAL
Test: Whole cell patch clamp, CHO-K1 cells stably expressing human Kv4.3/KChIP2.2
Assay type: cell-based
Conditions: Kv4.3 mediated current, charge; patch clamp; read-out: Kv4.3 charge IC50
pIC50: −log10 of the molar value.
parameter: pIC50

Known pIC50 results, listed for orientation:
**Q:** Query (molecule): "Cc1nc(N(C)c2ccc(Br)cc2)sc1C(=O)N[C@@H]1CCC[C@H]1OCc1ccccc1" ; field requested: pIC50
**A:** 5.67

**Q:** Query (molecule): "O=C(N[C@@H]1CCC[C@H]1OCc1ccccc1)c1csc(Nc2ccc(Cl)cc2)n1" ; field requested: pIC50
**A:** 5.46

P = O=C(N[C@@H]1CCC[C@H]1OCc1ccccc1)c1csc(Nc2ccccc2)n1
Q = Cc1nc(Nc2ccc(Cl)cc2)sc1C(=O)N[C@H](C)c1ccc2ccccc2c1
R = Cc1nc(Nc2ccc(Br)cc2)sc1C(=O)NCc1cccnc1
**Q:** List items by pIC50 in falling order. Dear reader, please state the labels in the requested order.
**A:** Q, P, R
